# Test description: Phase I study CXR1002-001: plasma pharmacokinetics (LC-MS/MS)
# Type: in vivo, human
# Measurement context: human, plasma, oral, 600 mg, Patient 024, 600 mg, person, plasma, 843 hr; read-out: Concentration
Readout: concentration at 843 h (µM)
Report as a plain number; the unit µM is understood.

QUERY: Request the reported concentration at 843 h associated with O=C(O)C(F)(F)C(F)(F)C(F)(F)C(F)(F)C(F)(F)C(F)(F)C(F)(F)F [CXR1002]
RESULT: 904

----------
# Test description: Phase I study CXR1002-001: plasma pharmacokinetics (LC-MS/MS)
# Assay type: in vivo, human
# Measurement context: human, plasma, oral, 300 mg, Patient 014 Dose 300 mg; 675 hr; read-out: Concentration
Readout: concentration at 675 h (µM)
Report as a plain number; the unit µM is understood.

QUERY: Request the reported concentration at 675 h associated with O=C(O)C(F)(F)C(F)(F)C(F)(F)C(F)(F)C(F)(F)C(F)(F)C(F)(F)F
RESULT: 400

----------
# Test description: Phase I study CXR1002-001: plasma pharmacokinetics (LC-MS/MS)
# Type: in vivo, human
# Measurement context: human, plasma, oral, 1200 mg, Patient 034, 1200 mg, person, plasma, 676 hr; read-out: Concentration
Readout: concentration at 676 hr
Please provide the amount together with its unit, number first.

QUERY: Request the reported concentration at 676 hr associated with O=C(O)C(F)(F)C(F)(F)C(F)(F)C(F)(F)C(F)(F)C(F)(F)C(F)(F)F
RESULT: 1380 µM

----------
# Test description: Phase I study CXR1002-001: plasma pharmacokinetics (LC-MS/MS)
# Type: in vivo, human
# Measurement context: human, plasma, oral, 1200 mg, Patient 035, 1200 mg, person, plasma, 506 hr; read-out: Concentration
Readout: concentration at 506 h (µM)
Report as a plain number; the unit µM is understood.

QUERY: Request the reported concentration at 506 h associated with O=C(O)C(F)(F)C(F)(F)C(F)(F)C(F)(F)C(F)(F)C(F)(F)C(F)(F)F
RESULT: 774

----------
# Test description: Phase I study CXR1002-001: plasma pharmacokinetics (LC-MS/MS)
# Format: in vivo, human
# Measurement context: human, plasma, oral, 950 mg, Patient 032, 950 mg, person, plasma, 172 hr; read-out: Concentration
Readout: concentration at 172 h (µM)
Report as a plain number; the unit µM is understood.

QUERY: Request the reported concentration at 172 h associated with O=C(O)C(F)(F)C(F)(F)C(F)(F)C(F)(F)C(F)(F)C(F)(F)C(F)(F)F
RESULT: 517

----------
# Test description: Phase I study CXR1002-001: plasma pharmacokinetics (LC-MS/MS)
# Format: in vivo, human
# Measurement context: human, plasma, oral, 950 mg, Patient 029, 950 mg, person, plasma, 336 hr (Day 15); read-out: Concentration
Readout: concentration at 336 h (µM)
Report as a plain number; the unit µM is understood.

QUERY: Request the reported concentration at 336 h associated with O=C(O)C(F)(F)C(F)(F)C(F)(F)C(F)(F)C(F)(F)C(F)(F)C(F)(F)F
RESULT: 439

----------
# Test description: Phase I study CXR1002-001: plasma pharmacokinetics (LC-MS/MS)
# Format: in vivo, human
# Measurement context: human, plasma, oral, 100 mg, Patient 005 Dose 100 mg; 504 hr (Day 22); read-out: Concentration
Readout: concentration at 504 h (µM)
Report as a plain number; the unit µM is understood.

QUERY: Request the reported concentration at 504 h associated with O=C(O)C(F)(F)C(F)(F)C(F)(F)C(F)(F)C(F)(F)C(F)(F)C(F)(F)F [CXR1002]
RESULT: 48.4
